Molecular target: Histone-lysine N-methyltransferase EHMT2 (Homo sapiens) (UniProt Q96KQ7)
Sequence (Q96KQ7 913-1193 limits assumed): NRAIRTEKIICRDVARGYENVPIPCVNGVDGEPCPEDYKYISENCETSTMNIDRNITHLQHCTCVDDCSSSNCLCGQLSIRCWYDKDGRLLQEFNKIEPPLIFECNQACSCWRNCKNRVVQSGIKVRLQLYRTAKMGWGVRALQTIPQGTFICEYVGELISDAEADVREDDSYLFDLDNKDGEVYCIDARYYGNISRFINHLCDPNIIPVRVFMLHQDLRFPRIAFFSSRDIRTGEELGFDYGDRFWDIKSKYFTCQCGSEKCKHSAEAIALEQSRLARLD
Test: qHTS Assay for Inhibitors of Histone Lysine Methyltransferase G9a; further: nearly all actives have a fitted effect of over 75% in size; on activity, negative = inhibition: on the % scale 0 is the no-effect control and ±100 the full control effect
Details: G9a H3K9 monomethylation, AlphaScreen, 2 h; series mostly up to 59 µM
About 31,000 (8.9%) of roughly 350,000 compounds were called active. Roughly 15% stayed inconclusive and do not appear here. Many of the other results were omitted from the sample, so actives are more common in it than they were.
Readings of activity, negative = inhibition for the listed compounds

compound: CCN(CC(=O)Nc1ccc(NC(C)=O)cc1)C(=O)CSC(=S)N1CCCC1
activity, negative = inhibition: -6.65% [at 12.7 µM] (inactive)
--
compound: CCN1CCN(C(=O)N(Cc2ccc(Cl)cc2)S(=O)(=O)c2ccc(C)cc2)CC1
activity, negative = inhibition: 19.8% [at 2.33 µM] (inactive)
--
compound: CCOC(=O)c1sc(NC(=O)C2CSC3(C)CCC(=O)N23)nc1C (configuration not stated)
activity, negative = inhibition: 20.6% [at 12.7 µM] (inactive)

Bench note: what activity, negative = inhibition did O=C(COC(=O)c1cccc(Cl)c1)Nc1ccc2[nH]c(=O)[nH]c2c1 show? 10.7% [at 2.33 µM] (inactive)

Bench note: what activity, negative = inhibition did O=C1C(Cl)=C(N2CCOCC2)C(=O)N1c1ccccc1 show? 3.23% [at 2.33 µM] (inactive)

Bench note: what activity, negative = inhibition did Cc1noc(C)c1C(=O)NCC1COc2ccccc2O1 (configuration not stated) show? -3.43% [at 2.33 µM] (inactive)

Bench note: what activity, negative = inhibition did CCOC(=O)C1CCN(C(=O)Cc2c(C(=O)O)[nH]c3ccccc23)CC1 show? 16% [at 2.33 µM] (inactive)

Bench note: what activity, negative = inhibition did COc1ccc(NS(=O)(=O)c2cccc(C(=O)NCCc3ccc(S(N)(=O)=O)cc3)c2)cc1 show? 9.68% [at 12.7 µM] (inactive)

Bench note: what activity, negative = inhibition did COC(=O)N1CCC2(CCCN(Cc3ccccc3OC)C2)CC1 show? 2.95% [at 12.7 µM] (inactive)

Bench note: what activity, negative = inhibition did Cn1c(N)c(C(=O)COC(=O)/C=C/c2cccc(C(F)(F)F)c2)c(=O)n(C)c1=O show? 28.8% [at 2.33 µM] (inactive)

Bench note: what activity, negative = inhibition did Cc1cc(/C=C2/SC(=O)N(CC(=O)OC(C)C)C2=O)c(C)n1C show? 19.4% [at 12.7 µM] (inactive)

Bench note: what activity, negative = inhibition did CC(=O)NC(c1cccs1)c1cc(Br)c2cccnc2c1O (configuration not stated) show? 7.81% [at 12.7 µM] (inactive)

Bench note: what activity, negative = inhibition did Cc1cccc(OCC(=O)Nc2ccc(NC(=O)c3ccco3)c(C)c2)c1 show? 0.639% [at 12.7 µM] (inactive)

Bench note: what activity, negative = inhibition did CCOC(=O)C1CCN(C(=O)COc2cccc3ccccc23)CC1 show? 9.04% [at 12.7 µM] (inactive)

Bench note: what activity, negative = inhibition did CC1CCCN(C(=O)CN2C(=O)c3ccccc3S2(=O)=O)C1 (configuration not stated) show? 6.05% [at 2.33 µM] (inactive)

Bench note: what activity, negative = inhibition did COc1ccc(-c2cc(C(=O)NCCCN3CCCC3=O)c3ccccc3n2)cc1OC show? 15% [at 2.33 µM] (inactive)

Bench note: what activity, negative = inhibition did CCN1CCN(c2ccc([N+](=O)[O-])cc2C(=O)c2ccc(Cl)cc2)CC1 show? 36.3% [at 0.501 µM] (inactive)

Bench note: what activity, negative = inhibition did CCN(C(=O)Cc1c(C(=O)O)n(CC)c2ccccc12)c1ccccc1C show? 26.7% [at 0.501 µM] (inactive)

Bench note: what activity, negative = inhibition did COc1ccccc1Nc1nnc(SC(C)C(=O)NC2CC2)s1 (configuration not stated) show? -13.1% [at 12.7 µM] (inactive)

Bench note: what activity, negative = inhibition did CC1CC(=O)Nc2ccccc2N1C(=O)COc1ccc2cc(Br)ccc2c1 (configuration not stated) show? -5.57% [at 2.33 µM] (inactive)

###

Target: Histone-lysine N-methyltransferase EHMT2 (Homo sapiens)
Assay: qHTS Assay for Inhibitors of Histone Lysine Methyltransferase G9a; further: nearly all actives have a fitted effect of over 75% in size
Conditions: G9a H3K9 monomethylation, AlphaScreen, 2 h; series mostly up to 59 µM
The campaign covered roughly 350,000 compounds. About 31,000 (8.9%) were called active. Another 15% or so got no clear call; they are omitted. Calls come from the whole dose curve; as a rule, active = well fitted inhibition curve with a large enough effect; inconclusive = small, poorly fitted or top-dose-only effect; inactive = no such curve, though single readings can be large or run the other way. The entries come from a sample that favours actives as a whole.
Reply using exactly one outcome from 1 (active), -1 (inactive)

compound: CN1C(=O)c2ccccc2Sc2ccc(NC(=O)Cc3ccc(Cl)cc3)cc21
qualitative_label: -1

Test call, this compound: O=C(O)c1ccc(NC(=O)c2ccc(COc3ccc(Cl)cc3)o2)cc1 -1

Test call, this compound: COc1ccccc1NC(=O)C1=C(C)NC2=C(C(=O)CCC2)C1c1ccc(C)o1 (configuration not stated) 1

Test call, this compound: CN1C(=O)/C(=C\c2cc(Br)cs2)c2ccccc21 1

Test call, this compound: CCCCNC(=O)CSc1nc2ccc(NC(=O)CSc3nnc(N)s3)cc2s1 1

Test call, this compound: CCC(=O)Nc1ccc2nc(SCC(=O)N3CCc4ccccc43)sc2c1 -1

Test call, this compound: CN(C(=O)CSc1nc2ccc(NC(=O)COc3ccccc3)cc2s1)c1ccccc1 -1

Test call, this compound: COc1ccccc1CNC(=O)COn1nnc2ccc(S(=O)(=O)N3CCOCC3)cc21 -1

Test call, this compound: CCCNC(=O)CCc1c(C)nc2c(c(C)nn2-c2ccccc2)c1C -1

Test call, this compound: CCN(C(=O)Cn1c(=O)nc(-c2ccccc2)c2cc(Cl)ccc21)c1cccc(C)c1 -1

Test call, this compound: Cc1c(Cl)cccc1NC(=O)C(=O)NCCc1csc2nc(-c3ccccc3F)nn12 -1

Test call, this compound: O=C(NCc1ccccc1CN1CCCC1)C1CCN(S(=O)(=O)c2ccc(Cl)cc2)CC1 -1

Test call, this compound: CCC1C(=O)c2ccccc2N(C)C1=O (configuration not stated) -1

Test call, this compound: COc1cc(Cl)ccc1Nc1ncc(C(=O)N2CCN(c3ccccc3OC)CC2)c2ccccc12 -1

Test call, this compound: O=C(NC1CC(=O)N(c2ccccc2)C1)c1ccco1 (configuration not stated) -1

Test call, this compound: CC(OC(=O)c1ccc(S(=O)(=O)N2CCOCC2)cc1)c1ccccc1 (configuration not stated) -1

###

Target: Histone-lysine N-methyltransferase EHMT2 (Homo sapiens) (UniProt Q96KQ7)
Assay: qHTS Assay for Inhibitors of Histone Lysine Methyltransferase G9a; further: nearly all actives have a fitted effect of over 75% in size
Conditions: G9a H3K9 monomethylation, AlphaScreen, 2 h; series mostly up to 59 µM
Screen size: about 350,000 compounds; about 31,000 (8.9%) were called active. About 15% were inconclusive and are not listed. The call rests on the fitted dose curve; in most records, active means well fitted inhibition curve with a large enough effect; inconclusive means small, poorly fitted or top-dose-only effect; inactive means no such curve, though single readings can be large or run the other way. Many of the other results were omitted from the sample, so actives are more common in it than they were.
Reply using exactly one outcome from y = active, n = inactive

Some solved cases for reference:
compound: COC(=O)c1c(NC(=O)C(C)Oc2ccc(Cl)c(C)c2)sc(C)c1C (centres undefined)
qualitative_label: n
--
compound: O=C(NCCc1c[nH]c2ccccc12)C1CCN(Cc2ccc(Br)cc2)CC1
qualitative_label: n
--
compound: COc1ccc(Nc2nnc(C)c3ccccc23)cc1
qualitative_label: n
--
compound: CCc1cccc(NC(=O)CSc2nccn2C)c1
qualitative_label: n
--
compound: C[C@]1(C(=O)NCCc2c[nH]c3ccccc23)C=C[C@@H](Cc2ccccc2)N1C(=O)c1ccccc1
qualitative_label: y

Test call, this compound: COc1ccc2oc(C(=O)NCC(Cc3ccccc3)N(C)C)c(C)c2c1 (centres undefined) n

Test call, this compound: CC(O)COc1ccccc1 (centres undefined) n

Test call, this compound: COCCCNCC(=O)Nc1sc(C)c(C)c1C(=O)OC y

Test call, this compound: FC(F)(F)c1ccc2nnc(-c3c(Cl)cccc3Cl)n2c1 y

Test call, this compound: CCOc1ccccc1C(=O)NCc1ccco1 y

###

Molecular target: Histone-lysine N-methyltransferase EHMT2 (Homo sapiens) (UniProt Q96KQ7)
Assay: qHTS Assay for Inhibitors of Histone Lysine Methyltransferase G9a; further: nearly all actives have a fitted effect of over 75% in size; further: potency means the concentration at half of the fitted maximal effect
Details: G9a H3K9 monomethylation, AlphaScreen, 2 h; series mostly up to 59 µM
In all, about 350,000 compounds went through this assay and about 31,000 (8.9%) were called active. Not shown: some 15% with an inconclusive outcome. Only a selection was taken, and actives are over-represented in it overall.
measured_metric: Potency

Known Potency results, listed for orientation:
compound: O=C(Nc1ccc(F)cc1)N1CCN(c2ccc(F)cc2)CC1
Potency: inactive
--
compound: CCOc1ccc(NC(=O)CSc2c3c(nc4ccccc24)CCCC3)cc1
Potency: inactive
--
compound: CC(=O)N1CCN(c2ccc(NCc3ccc(C(C)C)cc3)cc2)CC1
Potency: 14.1 µM (active)
--
compound: Cc1ccc(N(C)C(=O)C2CCN(S(=O)(=O)c3ccc4c(c3)CCCN4C(=O)C3CCC3)CC2)cc1
Potency: inactive
--
compound: S=C(Cc1ccc(Cl)cc1)N1CCOCC1
Potency: 14.1 µM (active)

Bench note: what Potency did O=C(Cn1c(=S)nc2ccccn21)N1CCc2ccccc2C1 show? 12.6 µM (active)

Bench note: what Potency did CCc1ccc(NC(=O)N2CCN(c3ccccc3)CC2)cc1 show? inactive

Bench note: what Potency did Cc1nc(-c2ccc(F)cc2)c(CC(=O)N(C)CC(=O)Nc2c(C)cccc2C)s1 show? inactive

Bench note: what Potency did Cc1cc(C)cc(NC(=O)CSc2nc3nccnc3c(=O)n2CCc2c[nH]c3ccccc23)c1 show? inactive

Bench note: what Potency did O=C(Cc1ccccc1Cl)N1CCOCC1 show? inactive

Bench note: what Potency did OC(COc1cccc2ccccc12)CN1CCN(c2ccccn2)CC1 (stereo not drawn) show? 50.1 µM (active)

Bench note: what Potency did CCOc1ccc(C2C(=O)N(C3CCCCC3)CC(=O)N2CCC2=CCCCC2)cc1OC (stereo not drawn) show? inactive

Bench note: what Potency did O=C(COc1ccccc1)N1CCc2ccccc2C1 show? inactive

Bench note: what Potency did CCc1nn(CCCC(=O)Nc2ccc(C)cc2C)c(=O)c2cc3occc3n12 show? inactive

Bench note: what Potency did CCC(C)NC(=O)Cn1c(=O)n(-c2ccc(Cl)cc2)c(=O)c2c3c(sc21)CCCC3 (stereo not drawn) show? inactive

Bench note: what Potency did Cc1ccccc1OCC(O)CN1CCN(c2ccccn2)CC1 (stereo not drawn) show? inactive
